# study.target: T1, WT G-CSF, purified, tag cleaved (human, UniProt P09919 31-206)
# T1 construct: also called G-CSFWT
# T1 sequence: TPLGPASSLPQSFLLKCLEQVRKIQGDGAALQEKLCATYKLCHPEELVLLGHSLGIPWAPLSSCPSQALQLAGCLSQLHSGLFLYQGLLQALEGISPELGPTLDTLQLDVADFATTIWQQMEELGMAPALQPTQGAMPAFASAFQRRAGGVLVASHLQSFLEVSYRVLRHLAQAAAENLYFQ
# assay.info: SPR (Biacore T200)
assay.endpoint: binding result

G-CSFR(Ig-CRH)E design 130, purified, tag cleaved (receptor, SPR protein; also called Design 130 G-CSFR(Ig-CRH)E) GSMGCGHISVSAPIVHLGDPITASCIIKQNCSHLDPEPQILWELGAELQPGGRQQRLSDGTQESIITLPHLNHTQAFLSCSLNWGNSLQILDQVELRAGYPPAIPHNLSCLMNLTTSSLICQWEPGPETHLPTSFTLKSFKSRGNCQTQGDSILDCVPKDGQSHCSIPDKHLLLYQNMGIWVQAENALGTSMSPQLCLDPMDVVKLEPPMLRTMDPSPEAAPPQAGCLQLSWEPWQPGLHINQKCELRHKPQRGEASWALVGPLPLEALQYELCGLLPATAYTLQIRCIRWPLPGHWSDWSPSLELRTTE	no binding
G-CSFR(Ig-CRH)E design 401, purified, tag cleaved (receptor, SPR protein; also called Design 401 G-CSFR(Ig-CRH)E) GSMGCGHISVSAPIVHLGDPITASCIIKQNCSHLDPEPQILWELGAELQPGGRQQRLSDGTQESIITLPHLNHTQAFLSCSLNWGNSLQILDQVELRAGYPPAIPHNLSCLMNLTTSSLICQWEPGPETHLPTSFTLKSFKSRGNCQTQGDSILDCVPKDGQSHCSIPDKHLLLYQNMGIWVQAENALGTSMSPQLCLDPMDVVKLEPPMLRTMDPSPEAAPPQAGCLQLSWEPWQPGLHINQKCELRHKPQRGEASWALVGPLPLEALQYELCGLLPATAYTLQIRCIDWPLPGHWSDWSPSLELRTTE	no binding

Data credit: patent US20240115603A1
